# assay-target: T1, mouse ICOS-mFc (Chimerigen) (mouse, UniProt Q9WVS0 21-141, limits assumed)
# T1 construct: also called mouse ICOS receptor; mouse ICOS Receptor; not shown: mouse Fc of the bought construct
# T1 sequence: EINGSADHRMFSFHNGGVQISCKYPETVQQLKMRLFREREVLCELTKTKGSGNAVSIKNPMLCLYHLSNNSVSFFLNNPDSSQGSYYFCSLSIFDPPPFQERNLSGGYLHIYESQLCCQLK
# test-protocol: HTRF neutralisation of Alexa 647 mouse B7-H2 binding to mouse ICOS-mFc; human IgG1; mean, n = 3
recorded-metric: IC50 (nM)
Please state the figure in nM; there is no need to write the unit.

Query block: Any idea what IC50 was measured for STIM005 human IgG1 (antibody, V domains shown, Human IgG1 format) VH: QVQLVQSGAEVKKPGASVKVSCKASGYTFNSYGIIWVRQAPGQGLEWMGWISVHNGNTNCAQKLQGRVTMTTDTSTSTAYMELRSLRTDDTAVYYCARAGYDILTDFSDAFDIWGHGTMVTVSS VL: DIQMTQSPSSLSASVGDRVTITCRASQNINNFLNWYQQKEGKGPKLLIYAASSLQRGIPSTFSGSGSGTDFTLTISSLQPEDFATYICQQSYGIPWVGQGTKVEIKR ?
Result block: 0.3
